# Tgt: Recombinant human renin (Homo sapiens)
# Sequence (P00797 67-406): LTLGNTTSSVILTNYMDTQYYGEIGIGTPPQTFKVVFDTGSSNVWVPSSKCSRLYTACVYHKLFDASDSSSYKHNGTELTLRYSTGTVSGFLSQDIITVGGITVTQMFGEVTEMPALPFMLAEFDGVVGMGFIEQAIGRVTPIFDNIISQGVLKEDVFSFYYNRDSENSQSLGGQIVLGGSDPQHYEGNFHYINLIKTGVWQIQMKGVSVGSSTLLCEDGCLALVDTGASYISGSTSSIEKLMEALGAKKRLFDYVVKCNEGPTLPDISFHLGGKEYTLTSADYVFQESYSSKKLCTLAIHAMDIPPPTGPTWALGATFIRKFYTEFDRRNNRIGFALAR
# Method: In vitro renin inhibitory activity assay
# Experimental context: recombinant human renin 4.2 ng/mL, substrate 4 μM, 37° C., one hour, pH 7.4
So basically: is IC50 under 200 nM? Then fulfilled. Not under? Then not fulfilled.

Worked examples, 5 molecules total:
INSERT INTO results (molecule, class_name) VALUES
  ('CCC(=O)NCCN1C(=O)C(C)(C)Oc2cc(C)c(C(=O)N(C(C)C)[C@@H]3CCCN(C(=O)OCOC(=O)OC4CCC4)C3)cc21', 'fulfilled'),
  ('CCC(=O)NCCN1C(=O)[C@](C)(COC)Oc2cc(C)c(C(=O)N(C(C)C)[C@@H]3CCCN(C(=O)O[C@H](C)OC(=O)C(C)C)C3)cc21', 'not fulfilled'),
  ('CCC(=O)NCCN1C(=O)C2(CCC2)Oc2cc(C)c(C(=O)N(C(C)C)C3CCCN(C(=O)OC(C)OC(=O)C4CCOCC4)C3)cc21 (stereo not drawn)', 'not fulfilled'),
  ('CCC(=O)NCCN1C(=O)C2(CCC2)Oc2cc(C)c(C(=O)N(C(C)C)[C@@H]3CCCN(C(=O)O[C@@H](C)OC(=O)C(C)C)C3)cc21', 'not fulfilled'),
  ('CCC(=O)NCCN1C(=O)C(C)(C)Oc2cc(C)c(C(=O)N(C(C)C)[C@@H]3CCCN(C(=O)OC(C)OC(=O)C(C)C)C3)cc21 (stereo partly drawn)', 'fulfilled');

Now consider the entry below.
Record `CCC(=O)NCCN1C(=O)C(C)(C)Oc2cc(C)c(C(=O)N(C(C)C)[C@@H]3CCCN(C(=O)O[C@@H](C)OC(=O)CC)C3)cc21` : is its IC50 strictly below 200 nM?
fulfilled

----------
# Tgt: Recombinant human renin (Homo sapiens)
# Method: In vitro renin inhibitory activity assay
# Experimental context: recombinant human renin 4.2 ng/mL, substrate 4 μM, 37° C., one hour, pH 7.4
Endpoint name: IC50 (nM)
The answer is to be given in nM; state only the numeric part.

// worked examples, IC50 included
INSERT INTO results (compound, quantitative_readout) VALUES
  ('CCC(=O)NCCN1C(=O)C(C)(C)Oc2cc(C)c(C(=O)N(C(C)C)C3CCCN(C(=O)OC(C)OC(=O)c4cccnc4)C3)cc21 (stereo not drawn)', 38),
  ('CCC(=O)NCCN1C(=O)C(C)(C)Oc2cc(C)c(C(=O)N(C(C)C)[C@@H]3CCCN(C(=O)OCOC(=O)C(C)C)C3)cc21', 42),
  ('CCC(=O)NCCN1C(=O)C(C)(C)Oc2cc(C(F)(F)F)c(C(=O)N(C(C)C)[C@@H]3CCCN(Cc4oc(=O)oc4C)C3)cc21', 0.38),
  ('CCC(=O)NCCN1C(=O)C(C)(C)Oc2cc(C)c(C(=O)N(C(C)C)[C@@H]3CCCN(C(=O)OC(C)(C)OC(C)=O)C3)cc21', 62),
  ('CCC(=O)NCCN1C(=O)C(C)(C)Oc2cc(C)c(C(=O)N(C(C)C)C3CCCN(C(=O)OC(C)OC(=O)OC4CCCCC4)C3)cc21 (stereo not drawn)', 13);

IC50 lookup needed for `CCC(=O)NCCN1C(=O)C(C)(C)Oc2cc(C)c(C(=O)N(C(C)C)[C@@H]3CCCN(C(=O)OCOC(=O)OCC4CC4)C3)cc21` , thanks.
460

----------
Quick reference: pIC50 of the listed items.
# Tgt: Recombinant human renin (Homo sapiens)
# Sequence (P00797 67-406): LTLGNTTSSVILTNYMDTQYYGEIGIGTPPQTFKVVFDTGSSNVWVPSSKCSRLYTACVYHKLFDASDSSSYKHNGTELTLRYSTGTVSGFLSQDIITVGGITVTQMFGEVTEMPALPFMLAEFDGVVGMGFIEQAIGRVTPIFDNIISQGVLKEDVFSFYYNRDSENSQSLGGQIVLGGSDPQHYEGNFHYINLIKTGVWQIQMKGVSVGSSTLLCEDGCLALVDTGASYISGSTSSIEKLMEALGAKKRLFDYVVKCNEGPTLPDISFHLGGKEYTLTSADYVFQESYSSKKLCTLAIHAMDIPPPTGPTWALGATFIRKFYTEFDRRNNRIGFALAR
# Method: In vitro renin inhibitory activity assay
# Experimental context: recombinant human renin 4.2 ng/mL, substrate 4 μM, 37° C., one hour, pH 7.4
Scale explanation: pIC50 corresponds to minus log10 of a concentration expressed in moles per litre.

// worked examples, pIC50 included
INSERT INTO assay_data (molecule, endpoint_name, quantitative_readout) VALUES
  ('CCC(=O)NCCN1C(=O)C(C)(COC)Oc2cc(C(F)(F)F)c(C(=O)N(C(C)C)C3CCCN(C(=O)OC(OC(=O)C(C)C)C(C)C)C3)cc21 (stereo not drawn) [Example 76]', 'pIC50', 9.25),
  ('CCC(=O)NCCN1C(=O)C2(CCC2)Oc2cc(C)c(C(=O)N(C(C)C)[C@@H]3CCCN(C(=O)OCc4oc(=O)oc4C)C3)cc21 [Example 81]', 'pIC50', 8.77),
  ('CCC(=O)NCCN1C(=O)C2(CCC2)Oc2cc(C)c(C(=O)N(C(C)C)C3CCCN(C(=O)OC(C)OC(C)=O)C3)cc21 (stereo not drawn) [Example 33]', 'pIC50', 8.92),
  ('CCC(=O)NCCN1C(=O)C(C)(C)Oc2cc(C)c(C(=O)N(C(C)C)[C@@H]3CCCN(C(=O)OC(C)OC(=O)CCCO)C3)cc21 (stereo partly drawn) [Example 63]', 'pIC50', 9.02),
  ('CCC(=O)NCCN1C(=O)C2(CC2)Oc2cc(C)c(C(=O)N(C(C)C)C3CCCN(C(=O)OC(C)OC(=O)C4CCOCC4)C3)cc21 (stereo not drawn) [Example 43]', 'pIC50', 7.16);

Attention now turns to another entry.
pIC50 lookup needed for CCC(=O)NCCN1C(=O)C2(CC2)Oc2cc(C)c(C(=O)N(C(C)C)C3CCCN(C(=O)OC(C)OC(=O)CC)C3)cc21 (stereo not drawn) [Example 41] , thanks.
7.17

----------
# System: abdominal skin of CD male rats
# Method: Testing for irritation by single subcutaneous administration to rats
# Assay type: in vivo
# Set-up: key: — No inflammation; Amount of Inflammation: * < ** < *** < ****; Amount of Inflammation: * < ** < *** < ****; Amount of Inflammation: * < ** < *** < ****; Amount of Inflammation: * < ** < *** < ****
# Experimental context: single subcutaneous administration 0.1 ml, 2% in DMSO and saline, three days after administration
Endpoint name: Observation at Administration Site, Three days after administration

INSERT INTO measurements (compound, result) VALUES
  ('CCC(=O)NCCN1C(=O)C2(CCC2)Oc2cc(C)c(C(=O)N(C(C)C)C3CCCN(C(=O)OC(C)OC(=O)c4ccc(C)cc4)C3)cc21 (stereo not drawn)', '***'),
  ('CCC(=O)NCCN1C(=O)C(C)(C)Oc2cc(C)c(C(=O)N(C(C)C)C3CCCN(C(=O)OC(C)OC(=O)C4CCOCC4)C3)cc21 (single isomer, unassigned)', '—'),
  ('CCC(=O)NCCN1C(=O)C(C)(C)Oc2cc(C)c(C(=O)N(C(C)C)[C@@H]3CCCN(C(=O)OCc4oc(=O)oc4C)C3)cc21', '—'),
  ('CCC(=O)NCCN1C(=O)C2(CCC2)Oc2cc(C)c(C(=O)N(C(C)C)[C@@H]3CCCNC3)cc21.Cl [Comparative Example 3, reference compound]', '****');

Observation at Administration Site, Three days after administration lookup needed for `CCC(=O)NCCN1C(=O)C2(CCC2)Oc2cc(C)c(C(=O)N(C(C)C)[C@@H]3CCCN(C(=O)O[C@H](C)OC(=O)C(C)C)C3)cc21` , thanks.
—

Observation at Administration Site, Three days after administration lookup needed for `CCC(=O)NCCN1C(=O)[C@](C)(COC)Oc2cc(C)c(C(=O)N(C(C)C)[C@@H]3CCCN(C(=O)O[C@H](C)OC(=O)C(C)C)C3)cc21` , thanks.
—
